Tested on: NCI-H23 lung
Assay: NCI-60 one-dose screen, 48 h (100 = growth as untreated, 0 = no growth, -100 = all killed)
Settings: 10 µM unless noted
Compounds without any hit were thinned out: in the full panel of roughly 83,000, 20% have a hit.
experimental.endpoint: growth (%)

- molecule: "COC(=O)CCc1c[nH]c2ccc(N(CCCl)CCCl)cc12"
  endpoint.unit: "%"
  result.value: 31.1
- molecule: "COc1cc(/C=C/[N+](=O)[O-])c([N+](=O)[O-])cc1OC"
  endpoint.unit: "%"
  result.value: 79.6
- molecule: "CN[C@]1(c2ccccc2Cl)CCCC[C@H]1NCCCN1CCN(C)CC1"
  endpoint.unit: "%"
  result.value: 109
- molecule: "C[C@@H]1O[C@@H](O[C@H]2C[C@@H](O)[C@]3(CO)C4C(CC[C@]3(O)C2)[C@@]2(O)CC[C@H](C3=CC(=O)OC3)[C@@]2(C)C[C@H]4O)[C@H](O)[C@H](O)[C@H]1O (some centres not stated)"
  endpoint.unit: "%"
  result.value: -67.1
- molecule: "COc1ccc(S(=O)(=O)N(Cc2ccc3c(c2)C=CC(C)(C)O3)c2ccccc2)cc1OC"
  endpoint.unit: "%"
  result.value: 47.6
- molecule: "CC(C)=CCC/C(C)=C/C=N\\N=C(/N)N[N+](=O)[O-]"
  endpoint.unit: "%"
  result.value: 97.6
- molecule: "CN(C)C(=O)Oc1ccc(Br)cc1"
  endpoint.unit: "%"
  result.value: 102

###

Test system: A549/ATCC NSCLC
Assay: NCI-60 one-dose screen, 48 h (100 = growth as untreated, 0 = no growth, -100 = all killed)
Conditions: 10 µM unless noted
The panel holds about 83,000 compounds, 20% with a hit somewhere; the sample as a whole holds those more often.
Measured growth, listed per entry for reference.
experimental.endpoint: growth (%)

- compound: "Cc1cc(N(CCCl)CCCl)ccc1C=Nc1ccccc1-c1ccccc1"
  assay.target: "A549/ATCC NSCLC"
  experimental.endpoint: "growth"
  result.value: 59.6
- compound: "COc1cc2c(=O)n(C3CCCCCCC3)c3c4cc[nH]c4ncc3c2cc1OC"
  assay.target: "A549/ATCC NSCLC"
  experimental.endpoint: "growth"
  result.value: 25.4
- compound: "Cc1c2cc(Cl)c3ccccc3c2c[n+]2ccccc12"
  assay.target: "A549/ATCC NSCLC"
  experimental.endpoint: "growth"
  result.value: 40.5
- compound: "Cn1cc(-c2csc(-c3cn(CCCCN4CCCCC4)c4ccc(F)cc34)n2)c2cccnc21"
  assay.target: "A549/ATCC NSCLC"
  experimental.endpoint: "growth"
  result.value: 92.6
- compound: "CC(=O)O[C@H](C[C@H](C(C)C)N(C)C(=O)[C@@H](NC(=O)[C@H]1CCCCN1C)C(C)C)c1cccc(C(=O)N[C@@H](Cc2ccccc2)C[C@H](C)C(=O)O)n1"
  assay.target: "A549/ATCC NSCLC"
  experimental.endpoint: "growth"
  result.value: 8.55
- compound: "CC(=O)O[C@H]1CC[C@@]2(C)C(=CC[C@H]3[C@@H]4C[C@@H](N5CC5)[C@H](C(C)=O)[C@@]4(C)CC[C@@H]32)C1"
  assay.target: "A549/ATCC NSCLC"
  experimental.endpoint: "growth"
  result.value: 100
- compound: "C/C(=C\\c1cc(C(F)(F)F)nn1CCNC(=O)OC(C)(C)C)[C@@H]1C[C@@H]2O[C@]2(C)CCC[C@H](C)[C@H](O)[C@@H](C)C(=O)C(C)(C)[C@@H](O)CC(=O)O1"
  assay.target: "A549/ATCC NSCLC"
  experimental.endpoint: "growth"
  result.value: 54.3
- compound: "Cc1cccc(N2CCN(C(C)C#N)CC2)c1 (stereo not given)"
  assay.target: "A549/ATCC NSCLC"
  experimental.endpoint: "growth"
  result.value: 107
- compound: "COC(=O)[C@H](Cc1ccccc1)NC(=O)c1csc([C@@H](C[C@H](C(C)C)N(C)C(=O)[C@@H](NC(=O)[C@H]2CCCN2C)C2CC2)OC(C)=O)n1"
  assay.target: "A549/ATCC NSCLC"
  experimental.endpoint: "growth"
  result.value: 23.2
- compound: "COc1ccc(/C=C\\c2cc(OC)c(OC)c(OC)c2)cc1NC(=O)/C=C/c1ccc(OC)c(OC)c1"
  assay.target: "A549/ATCC NSCLC"
  experimental.endpoint: "growth"
  result.value: 41.7

###

Test system: T-47D breast
Experiment: NCI-60 one-dose screen, 48 h
Conditions: 10 µM unless noted
This is part of a sample that, as a whole, favours compounds with a hit. Of some 83,000 tested, about 20% had one in any assay. The source made the active and inactive calls. Rule for the calls: active = growth percent below 10; inactive = the rest.
Classes used: active, inactive

- compound: "COC(=O)CC[C@H](Cc1ccccc1)NC(=O)c1csc([C@@H](C[C@H](C(C)C)N(C)C(=O)[C@@H](NC(=O)[C@H]2CCCCN2C)C(C)C)OC(C)=O)n1"
  group.label: "inactive"
- compound: "COC(=O)[C@H](C[C@H](Cc1ccccc1)NC(=O)c1csc([C@@H](C[C@H](C(C)C)N(C)C(=O)[C@@H](NC(=O)[C@H]2CCCCN2C)C(C)C)OC(C)=O)n1)NC(=O)OCc1ccccc1"
  group.label: "inactive"
- compound: "O=[N+]([O-])c1c(Br)sc(Br)c1[N+](=O)[O-]"
  group.label: "active"
- compound: "CC(=O)O[C@H]1CC[C@@]2(C)C(=CC[C@H]3[C@@H]4C[C@@H](N5CC5)[C@H](C(C)=O)[C@@]4(C)CC[C@@H]32)C1"
  group.label: "inactive"
- compound: "COC(C(=O)[C@@H](O)[C@@H](C)O)[C@@H]1Cc2cc3cc(O[C@H]4C[C@@H](O[C@H]5C[C@@H](O)[C@H](O)C(C)O5)[C@H](O)C(C)O4)c(C)c(O)c3c(O)c2C(=O)[C@H]1O[C@H]1C[C@@H](O[C@H]2C[C@@H](O[C@H]3C[C@@H](O)[C@@H](O)C(C)O3)[C@@H](O)C(C)O2)[C@H](O)C(C)O1 (stereo not given in full)"
  group.label: "active"

###

Test system: NCI-H522 lung
Assay: NCI-60 one-dose screen, 48 h (100 = growth as untreated, 0 = no growth, -100 = all killed)
Conditions: 10 µM unless noted
About 83,000 compounds went through this panel and 20% of them were active in at least one assay; those are over-represented in the sample as a whole. Activity calls are given as the source filed them. The calls were made as follows: active = growth percent below 10; inactive = the rest.
Measured growth, listed per entry for reference.

- molecule: "Clc1cccc(NCOOC2(OOCNc3cccc(Cl)c3)CCCCC2)c1"
  growth: "14.7% (inactive)"
- molecule: "COC(=O)[C@H](Cc1c[nH]c2ccccc12)NC(=O)[C@@H](OC)[C@@H]1Cc2cc3cc(OC4CC(OC5CC(O)C(O)C(C)O5)C(O)C(C)O4)c(C)c(O)c3c(O)c2C(=O)[C@H]1OC1CC(OC2CC(OC3CC(C)(O)C(O)C(C)O3)C(O)C(C)O2)C(O)C(C)O1 (stereo partly specified)"
  growth: "-28.2% (active)"
- molecule: "O=C1CNC(c2ccccc2)c2cc(Cl)ccc2N1 (stereo unspecified)"
  growth: "69.3% (inactive)"
- molecule: "CN1CCCCC1C(C)(O)c1ccccc1 (stereo unspecified)"
  growth: "89.9% (inactive)"
- molecule: "N/C(=N/N=C/c1ccncc1)N[N+](=O)[O-]"
  growth: "101% (inactive)"
- molecule: "COC(=O)[C@@H](C[C@H](Cc1ccccc1)NC(=O)c1csc([C@@H](C[C@H](C(C)C)N(C)C(=O)[C@@H](NC(=O)[C@H]2CCCCN2C)C(C)C)OC(C)=O)n1)NC(=O)OCc1ccccc1"
  growth: "-45.5% [9.5 µM] (active)"
- molecule: "CC(C)CCC1(CCCl)C(=O)NC(=O)NC1=O"
  growth: "104% (inactive)"
- molecule: "Cn1cc(-c2csc(-c3cn(CCN4CCOCC4)c4ccccc34)n2)c2cccnc21"
  growth: "40.6% (inactive)"
- molecule: "COc1cccc2c1c(C(=O)C(=O)Nc1cc(C)no1)cn2Cc1ccc(F)cc1"
  growth: "72.5% (inactive)"
- molecule: "C1CCC([PH+](C2CCCCC2)C2CCCCC2[PH+](C2CCCCC2)C2CCCCC2)CC1.O=C(C1[CH-]CCCC1)C1CCCC[N-]1.[Au] (stereo unspecified)"
  growth: "-22.4% (active)"
- molecule: "CN(C)C(=O)Oc1ccccc1-c1ccccc1"
  growth: "101% (inactive)"

###

Test system: MDA-MB-231 breast
Assay: NCI-60 one-dose screen, 48 h (100 = growth as untreated, 0 = no growth, -100 = all killed)
Conditions: 10 µM unless noted
About 83,000 compounds went through this panel and 20% of them were active in at least one assay; those are over-represented in the sample as a whole. Activity calls are given as the source filed them. How the source made its calls: active means growth percent below 10; inactive means the rest.

- compound: "C#Cc1ccc2c(c1)C(c1ccccc1)=NCC(=O)N2C"
  growth: "50.8% (inactive)"
- compound: "CC12CCC3C(CCC4=CC(=O)CCC43CF)C1CCC2=O (stereo unspecified)"
  growth: "118% (inactive)"
- compound: "O=C(N/N=C\\c1ccc(N(CCCl)CCCl)cc1Cl)c1cccnc1"
  growth: "85% (inactive)"
- compound: "CCCCC1(CCC)C(=O)NC(=S)NC1=O"
  growth: "113% (inactive)"
- compound: "O=C1C=C2C(=CCOC2O)O1 (stereo unspecified)"
  growth: "66% (inactive)"
- compound: "COc1ccc(/C(C)=C(\\c2ccc(OCCN3CCOCC3)cc2)c2ccc(OC(=O)Cc3ccccc3)cc2)cc1"
  growth: "109% (inactive)"
- compound: "COC(=O)[C@H](Cc1ccccc1)NC(=O)c1csc([C@@H](C[C@H](C(C)C)N(C)C(=O)[C@@H](NC(=O)[C@H]2CCCCN2C)C2CC2)OC(C)=O)n1"
  growth: "-1.7% (active)"
- compound: "CC1(C)N=C(N)N=C(N)N1c1ccc(OCCCNC(=O)Nc2ccc(S(=O)(=O)F)cc2)c(Cl)c1"
  growth: "65.1% (inactive)"
- compound: "O=C(O)c1c(Cl)n(Cc2ccc(O)cc2)c2ccc(O)cc12"
  growth: "102% (inactive)"
- compound: "CC(=O)OCC1O[C@@H]([S-])C(OC(C)=O)[C@H](OC(C)=O)[C@@H]1OC(C)=O.[Au+].c1ccc(CN2[CH-]N(Cc3ccccc3)C(c3ccccc3)=C2c2ccccc2)cc1"
  growth: "-29.4% (active)"
- compound: "CC(=O)O[C@H](C[C@H](C(C)C)N(C)C(=O)[C@@H](NC(=O)[C@H]1CCCCN1C)C(C)C)c1nc(C(=O)N[C@@H](Cc2ccccc2)C[C@H](C)C(=O)O)c(C(C)C)s1"
  growth: "12.9% (inactive)"
- compound: "Nc1cc2nc3ccccc3nc2cc1N"
  growth: "86.9% (inactive)"
- compound: "COc1ccc(C(=O)c2cc(OC)c(OC)c(OC)c2)cc1OC(C)=O"
  growth: "33.8% (inactive)"
- compound: "O=C1CCC2(O)[C@@H]3Cc4ccc(O)c5c4[C@]2(CCN3Cc2ccoc2)C1O5 (stereo partly specified)"
  growth: "106% (inactive)"
- compound: "O=C(CC1(O)C(=O)Nc2ccc(Br)cc21)c1ccc(C(=O)NCC2CCC3(CC2)OOC2(CCCCC2)OO3)cc1 (stereo unspecified)"
  growth: "56.8% (inactive)"
- compound: "O=[As](O)(O)c1ccccc1[As](=O)(O)O"
  growth: "103% (inactive)"
- compound: "CC1(C)CN1P(=O)(N1CC1(C)C)N1CC1(C)C (stereo unspecified)"
  growth: "107% (inactive)"
- compound: "O=C1N[C@@H]2[C@@H](O)[C@@H](O)[C@H](O)C[C@H]2c2cc3c(c(O)c21)OCO3"
  growth: "-27.9% (active)"
- compound: "O=C(NCCN1CC1)C(=O)NCCN1CC1"
  growth: "99.3% (inactive)"
- compound: "COC(=O)[C@@H](C)C[C@H](Cc1ccccc1)NC(=O)c1cccc([C@@H](C[C@H](C(C)C)N(C)C(=O)[C@@H](NC(=O)[C@H]2CCCCN2C)C(C)C)OC(C)=O)n1"
  growth: "-4.66% (active)"
- compound: "CCN1C(=O)C(=C/C=C/c2ccccc2)C(=O)N(CC)C1=O"
  growth: "86.4% (inactive)"
